Give measured EC50 for each item. Keep answers brief.
tested on: EOL-1; experiment: Cell viability assay (CellTiter-Blue), EOL-1; assay type: cell-based; settings: Homo sapiens, EOL1, read-out: EC50 EOL-1 μM (eosinophilic leukaemia), EOL-1 cells, read-out: EC50 EOL-1 μM (lymphoma);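 also: EOL-1 is an acute myeloid eosinophilic leukaemia line not a lymphoma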

Form field EC50, entry "CN(C)CCCNC(=O)c1ccc(-c2c(F)cnc3[nH]c4cnc(-c5cccnc5)cc4c23)cc1" : 0.1 to 1 µM

Form field EC50, entry "CN1CCN(NC(=O)c2ccc(-c3c(F)cnc4[nH]c5cnc(-c6cnn(C)c6Cl)cc5c34)cc2)CC1" : < 0.1 µM

Form field EC50, entry "CCNCCNC(=O)c1ccc(-c2c(F)cnc3[nH]c4cnc(-c5cccnc5)cc4c23)cc1" : 0.1 to 1 µM

Form field EC50, entry "CN(C)CC(C)(C)CNC(=O)c1ccc(-c2c(F)cnc3[nH]c4cnc(-c5cccnc5)cc4c23)cc1" : < 0.1 µM

Form field EC50, entry "COCCOc1cnc2[nH]c3cnc(-c4cccnc4)cc3c2c1-c1ccc(C(=O)NCCN(C)C)cc1" : < 0.1 µM

Form field EC50, entry "CC(C)N(CCNC(=O)c1ccc(-c2c(F)cnc3[nH]c4cnc(-c5cccnc5)cc4c23)cc1)C(C)C" : < 0.1 µM
